These entries and their values trace back to patent US11433055B2.

Listed next: entries and their corresponding EC_CLB30016 MITC95.
System: Escherichia coli expressing NDM-1 (CLB30016)
Assay type: cell-based
Settings: lowest concentration inhibiting 95% of bacterial growth; in the presence of β lactamase inhibitor (BLi, Relebactam); 22 hours, 35±2° C., OD600
Structures can show the parent of a compound that is named as a salt.
Please respond with the number in µM and leave the unit unwritten.

Use the examples below as a reference point.
| compound | EC_CLB30016 MITC95 [µM] |
| --- | --- |
| C[n+]1cc(-c2ccc3c(c2)CC[C@H]([C@](C)(O/N=C(\C(=O)N[C@@H]2C(=O)N(OS(=O)(=O)[O-])C2(C)C)c2csc(N)n2)C(=O)O)O3)cn1CC1(N)CNC1 | 100 |
| CC1(C)[C@H](NC(=O)/C(=N\O[C@](C)(C(=O)O)[C@H]2CCc3cc(-c4cnc(NCCCN)nc4)ccc3O2)c2csc(N)n2)C(=O)N1OS(=O)(=O)O [Example 33, Formate] | 6.25 |
| CC1(C)[C@H](NC(=O)/C(=N\O[C@](C)(C(=O)O)[C@H]2CCc3cc(C4=CN=C(NCCCN)NC4)ccc3O2)c2csc(N)n2)C(=O)N1OS(=O)(=O)O [Example 32, Formate] | 3.125 |
| CC1(C)[C@H](NC(=O)/C(=N\O[C@](C)(C(=O)O)[C@H]2CCc3cc(-c4ccc(NCCN)[n+](CC5CNC5)c4)ccc3O2)c2csc(N)n2)C(=O)N1OS(=O)(=O)[O-].O=CO | 12.5 |

Kindly consider the entry below.
For the record CC1(C)[C@H](NC(=O)/C(=N\OCC2CCc3cc(C(=N)NCCN)ccc3O2)c2csc(N)n2)C(=O)N1OS(=O)(=O)O (some centres unmarked) , what value of EC_CLB30016 MITC95 is listed for Escherichia coli expressing NDM-1 (CLB30016)?
12.5

###

Tested on: Escherichia coli expressing NDM-1 (CLB30016)
Type: cell-based
Conditions: lowest concentration inhibiting 95% of bacterial growth; in the presence of β lactamase inhibitor (BLi, Relebactam); 22 hours, 35±2° C., OD600
Listed next: entries and their corresponding EC_CLB30016 MITC95.
Enter the number, and then the unit.

Dear colleague, I am looking for the recorded EC_CLB30016 MITC95 of the following compound: CC1(C)[C@H](NC(=O)/C(=N\O[C@](C)(C(=O)O)[C@H]2CCc3cc(-c4cn(CCCN)c(=N)n4C[C@H](O)CO)ccc3O2)c2csc(N)n2)C(=O)N1OS(=O)(=O)O
12.5 µM

Dear colleague, I am looking for the recorded EC_CLB30016 MITC95 of the following compound: CC1(C)[C@H](NC(=O)/C(=N\O[C@](C)(C(=O)O)[C@H]2CCc3cc(C4CN=C(NCCN)NC4)ccc3O2)c2csc(N)n2)C(=O)N1OS(=O)(=O)O.O=CO (some centres unmarked)
25 µM

Dear colleague, I am looking for the recorded EC_CLB30016 MITC95 of the following compound: C[n+]1cc(-c2ccc3c(c2)OCC(CO/N=C(\C(=O)N[C@@H]2C(=O)N(OS(=O)(=O)[O-])C2(C)C)c2csc(N)n2)C3)ccc1NCCN.O=C(O)C(F)(F)F (some centres unmarked) [Example 38]
6.25 µM

Dear colleague, I am looking for the recorded EC_CLB30016 MITC95 of the following compound: CC1(C)[C@H](NC(=O)/C(=N\O[C@](C)(C(=O)O)[C@H]2CCc3cc(C4CNC(NCCN)=N4)ccc3O2)c2csc(N)n2)C(=O)N1OS(=O)(=O)O (single isomer, unassigned) [Example 25]
6.25 µM

Dear colleague, I am looking for the recorded EC_CLB30016 MITC95 of the following compound: C[n+]1cc(-c2ccc3c(c2)CC[C@H]([C@](C)(O/N=C(\C(=O)N[C@@H]2C(=O)N(OS(=O)(=O)[O-])C2(C)C)c2csc(N)n2)C(=O)O)O3)cnc1N(CCN)CC1CNC1.O=CO
6.25 µM
